Assay: Plasma levels of Compound 1 over 24 hours after 14 days of suspension administration in healthy volunteers
Assay type: in vivo
Settings: human, oral, 75 mg BID suspension, 2.5 h post-dose
readoutKind: concentration at 2.5 h (ng/mL)
Report the figure in ng/mL without appending any unit label.

### Prompt Given NC(=O)N1CCC[C@@H](N(C(=O)NCc2ccc(OC(F)(F)F)cc2F)C2CC2)C1 , state its recorded concentration at 2.5 h.
### Response 3140

----------
Assay: Plasma levels of Compound 1 over 72 h, suspension versus tablet, fasted or fed, in healthy volunteers
Format: in vivo
Settings: human, oral, 100 mg, 100 mg tablet, fed, 10 h post-dose, read-out: Plasma level, Mean
readoutKind: concentration at 10 h (ng/mL)
Report the figure in ng/mL without appending any unit label.

### Prompt Given NC(=O)N1CCC[C@@H](N(C(=O)NCc2ccc(OC(F)(F)F)cc2F)C2CC2)C1 , state its recorded concentration at 10 h.
### Response 1270

----------
Assay: Plasma levels of Compound 1 over 24 hours after 14 days of suspension administration in healthy volunteers
Type: in vivo
Conditions: human, oral, 150 mg QD suspension, 2.5 h post-dose
readoutKind: concentration at 2.5 h

### Prompt Given NC(=O)N1CCC[C@@H](N(C(=O)NCc2ccc(OC(F)(F)F)cc2F)C2CC2)C1 , state its recorded concentration at 2.5 h.
### Response 3940 ng/mL

----------
Test: Plasma levels of Compound 1 over 24 hours after 14 days of suspension administration in healthy volunteers
Assay type: in vivo
Settings: human, oral, 25 mg BID suspension, 9 h post-dose
readoutKind: concentration at 9 h (ng/mL)
Report the figure in ng/mL without appending any unit label.

### Prompt Given NC(=O)N1CCC[C@@H](N(C(=O)NCc2ccc(OC(F)(F)F)cc2F)C2CC2)C1 [Cpd 1] , state its recorded concentration at 9 h.
### Response 977

----------
Assay: Plasma levels of Compound 1 over 24 hours after 14 days of suspension administration in healthy volunteers
Assay type: in vivo
Conditions: human, oral, 75 mg BID suspension, 11.5 h post-dose
readoutKind: concentration at 11.5 h (ng/mL)
Report the figure in ng/mL without appending any unit label.

### Prompt Given NC(=O)N1CCC[C@@H](N(C(=O)NCc2ccc(OC(F)(F)F)cc2F)C2CC2)C1 [Cpd 1] , state its recorded concentration at 11.5 h.
### Response 3200

----------
Experiment: Plasma levels of Compound 1 over 24 hours after 14 days of suspension administration in healthy volunteers
Type: in vivo
Conditions: human, oral, 150 mg QD suspension, 4 h post-dose
readoutKind: concentration at 4 h

### Prompt Given NC(=O)N1CCC[C@@H](N(C(=O)NCc2ccc(OC(F)(F)F)cc2F)C2CC2)C1 , state its recorded concentration at 4 h.
### Response 3130 ng/mL

----------
Assay: Plasma levels of Compound 1 over 24 hours after 14 days of suspension administration in healthy volunteers
Assay type: in vivo
Settings: human, oral, 25 mg BID suspension, 12 h post-dose
readoutKind: concentration at 12 h (ng/mL)
Report the figure in ng/mL without appending any unit label.

### Prompt Given NC(=O)N1CCC[C@@H](N(C(=O)NCc2ccc(OC(F)(F)F)cc2F)C2CC2)C1 , state its recorded concentration at 12 h.
### Response 748

----------
Assay: Plasma levels of Compound 1 over 72 h, suspension versus tablet, fasted or fed, in healthy volunteers
Assay type: in vivo
Settings: human, oral, 100 mg, 100 mg suspension, fasted, 3 h post-dose, read-out: Plasma level, Mean
readoutKind: concentration at 3 h (ng/mL)
Report the figure in ng/mL without appending any unit label.

### Prompt Given NC(=O)N1CCC[C@@H](N(C(=O)NCc2ccc(OC(F)(F)F)cc2F)C2CC2)C1 , state its recorded concentration at 3 h.
### Response 2720
